biological target: HiBit-WIZ fusion protein (Homo sapiens, UniProt O95785+Q96SW2); assay: Quantification of WIZ protein levels in HiBit tag fusion protein assay (WIZ HiBit assay in 293T cells); type: cell-based; parameters: dose or concentration left out as unconfirmed; settings: HEK-293T, read-out: % degradation of WIZ (100-Amax), 100 minus Amax; 293T cells
Sequence (O95785 whole entry, the tested form may be a part): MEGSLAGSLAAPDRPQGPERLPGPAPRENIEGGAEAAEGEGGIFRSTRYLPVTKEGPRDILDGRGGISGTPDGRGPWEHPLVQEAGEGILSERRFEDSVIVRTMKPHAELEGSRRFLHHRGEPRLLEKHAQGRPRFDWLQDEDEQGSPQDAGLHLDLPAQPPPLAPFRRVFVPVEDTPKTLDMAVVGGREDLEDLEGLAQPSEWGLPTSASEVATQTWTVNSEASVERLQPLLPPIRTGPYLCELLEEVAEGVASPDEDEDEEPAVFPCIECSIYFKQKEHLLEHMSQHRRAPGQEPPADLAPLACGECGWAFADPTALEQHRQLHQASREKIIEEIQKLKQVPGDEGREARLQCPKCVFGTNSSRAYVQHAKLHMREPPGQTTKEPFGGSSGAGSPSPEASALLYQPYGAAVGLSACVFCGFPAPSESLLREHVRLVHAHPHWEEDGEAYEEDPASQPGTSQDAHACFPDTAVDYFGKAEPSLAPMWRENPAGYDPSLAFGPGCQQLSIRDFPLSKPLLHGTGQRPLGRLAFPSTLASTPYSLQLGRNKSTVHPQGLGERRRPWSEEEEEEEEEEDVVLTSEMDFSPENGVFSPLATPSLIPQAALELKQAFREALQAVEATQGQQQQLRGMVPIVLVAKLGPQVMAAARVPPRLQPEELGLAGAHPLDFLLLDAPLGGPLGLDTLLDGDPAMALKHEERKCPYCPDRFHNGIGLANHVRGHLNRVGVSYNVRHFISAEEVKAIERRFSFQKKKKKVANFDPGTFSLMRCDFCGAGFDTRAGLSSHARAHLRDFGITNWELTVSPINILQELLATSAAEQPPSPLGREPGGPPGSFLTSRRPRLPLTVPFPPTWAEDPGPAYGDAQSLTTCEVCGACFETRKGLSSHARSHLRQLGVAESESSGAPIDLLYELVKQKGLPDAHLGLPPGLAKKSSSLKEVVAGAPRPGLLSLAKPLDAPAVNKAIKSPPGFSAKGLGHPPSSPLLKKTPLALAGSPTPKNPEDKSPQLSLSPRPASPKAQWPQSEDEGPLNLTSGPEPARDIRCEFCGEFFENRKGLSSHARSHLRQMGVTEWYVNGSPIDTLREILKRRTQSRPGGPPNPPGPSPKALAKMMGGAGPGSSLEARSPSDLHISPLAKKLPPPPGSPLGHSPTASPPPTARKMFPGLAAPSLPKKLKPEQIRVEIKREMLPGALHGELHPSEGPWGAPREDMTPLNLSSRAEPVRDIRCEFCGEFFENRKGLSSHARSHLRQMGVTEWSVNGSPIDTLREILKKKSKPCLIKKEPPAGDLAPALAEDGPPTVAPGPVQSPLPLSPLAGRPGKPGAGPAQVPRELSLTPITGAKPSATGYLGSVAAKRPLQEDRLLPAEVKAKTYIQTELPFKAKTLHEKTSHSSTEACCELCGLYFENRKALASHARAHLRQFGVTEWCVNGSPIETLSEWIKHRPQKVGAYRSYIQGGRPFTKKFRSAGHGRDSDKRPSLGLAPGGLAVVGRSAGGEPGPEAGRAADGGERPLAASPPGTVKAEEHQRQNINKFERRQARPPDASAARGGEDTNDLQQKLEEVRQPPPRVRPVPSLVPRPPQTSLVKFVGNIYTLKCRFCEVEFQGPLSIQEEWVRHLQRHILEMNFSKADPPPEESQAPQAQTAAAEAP
Sequence (Q96SW2 whole entry, the tested form may be a part): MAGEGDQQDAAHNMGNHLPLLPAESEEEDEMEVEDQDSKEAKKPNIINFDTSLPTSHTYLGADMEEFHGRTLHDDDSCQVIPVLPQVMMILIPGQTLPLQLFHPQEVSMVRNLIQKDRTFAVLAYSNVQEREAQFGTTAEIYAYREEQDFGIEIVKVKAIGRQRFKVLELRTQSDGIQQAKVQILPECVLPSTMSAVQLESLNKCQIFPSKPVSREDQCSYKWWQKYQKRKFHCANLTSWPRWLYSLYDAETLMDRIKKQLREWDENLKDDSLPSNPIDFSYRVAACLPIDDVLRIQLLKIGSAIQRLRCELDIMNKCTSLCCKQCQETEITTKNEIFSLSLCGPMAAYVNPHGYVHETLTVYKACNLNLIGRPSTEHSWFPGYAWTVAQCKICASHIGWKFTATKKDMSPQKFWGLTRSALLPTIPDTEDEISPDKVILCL
Sequence (Q16531 whole entry partner, the tested form may be a part): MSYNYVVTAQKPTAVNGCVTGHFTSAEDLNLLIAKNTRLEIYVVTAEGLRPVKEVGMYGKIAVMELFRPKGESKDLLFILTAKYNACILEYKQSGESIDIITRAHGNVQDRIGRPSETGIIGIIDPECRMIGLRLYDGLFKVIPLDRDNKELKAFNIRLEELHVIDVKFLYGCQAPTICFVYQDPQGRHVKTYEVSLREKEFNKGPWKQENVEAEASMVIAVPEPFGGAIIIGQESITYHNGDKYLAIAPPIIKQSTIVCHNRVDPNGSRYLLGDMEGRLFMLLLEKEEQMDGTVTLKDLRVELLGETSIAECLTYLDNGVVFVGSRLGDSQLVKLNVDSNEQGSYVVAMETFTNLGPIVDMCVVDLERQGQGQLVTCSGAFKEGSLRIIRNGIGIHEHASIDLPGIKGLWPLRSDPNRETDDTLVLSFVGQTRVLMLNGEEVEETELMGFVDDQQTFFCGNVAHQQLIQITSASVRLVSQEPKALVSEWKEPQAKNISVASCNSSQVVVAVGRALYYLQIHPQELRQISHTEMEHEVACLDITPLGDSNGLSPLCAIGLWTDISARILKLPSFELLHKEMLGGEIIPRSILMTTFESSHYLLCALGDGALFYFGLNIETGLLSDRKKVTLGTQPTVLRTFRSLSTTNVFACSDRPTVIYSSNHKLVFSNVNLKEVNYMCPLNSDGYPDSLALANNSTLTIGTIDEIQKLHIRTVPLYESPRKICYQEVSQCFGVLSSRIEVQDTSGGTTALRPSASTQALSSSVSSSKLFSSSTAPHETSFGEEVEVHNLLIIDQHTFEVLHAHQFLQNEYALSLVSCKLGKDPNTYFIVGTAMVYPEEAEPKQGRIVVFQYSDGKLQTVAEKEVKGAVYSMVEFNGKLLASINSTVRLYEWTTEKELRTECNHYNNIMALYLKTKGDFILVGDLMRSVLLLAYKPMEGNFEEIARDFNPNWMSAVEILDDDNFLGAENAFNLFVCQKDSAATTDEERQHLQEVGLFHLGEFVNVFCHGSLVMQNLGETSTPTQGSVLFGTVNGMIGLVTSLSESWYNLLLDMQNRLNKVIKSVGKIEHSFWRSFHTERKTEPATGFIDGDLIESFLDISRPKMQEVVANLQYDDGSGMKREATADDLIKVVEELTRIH
Where Dmax equals or exceeds 70%, the correct label is Y; where it does not, the label is N.

Worked set:
Compound | Category label
CCc1cc(CN2CCCC[C@@H]2COc2ccc3c(c2)CN(C2CCC(=O)NC2=O)C3=O)ccc1C1CCN(CC)CC1 (some centres unmarked) | N
CCN1CCC(c2ccc(CN3CCCC[C@@H]3COc3ccc4c(c3)CN(C3CCC(=O)NC3=O)C4=O)cc2)CC1 (some centres unmarked) | N

Here's the next entry for you.
Request: Check if Dmax >= 70% (inclusive). Item: CC(C)N1CCN(c2ccc(CN3CCCC[C@@H]3COc3ccc4c(c3)CN(C3CCC(=O)NC3=O)C4=O)cc2)CC1 (some centres unmarked)
Response: N

* * *

For each record, write down the corresponding Dmax.
biological target: HiBit-WIZ fusion protein (Homo sapiens, UniProt O95785+Q96SW2); experiment: Quantification of WIZ protein levels in HiBit tag fusion protein assay (WIZ HiBit assay in 293T cells); type: cell-based; set-up: dose or concentration left out as unconfirmed; conditions: HEK-293T, 100 minus Amax; 293T cells; read-out: % degradation of WIZ (100-Amax)
Answers are plain numbers, in %.

Molecule | Unit abbrev | Recorded measurement
O=C1CCC(N2Cc3cc(OC[C@H]4CCCCN4Cc4cccc5c4NCC5)ccc3C2=O)C(=O)N1 (stereo partly shown) | % | 90.7

Provide the reported Dmax of each entry below, same order.
1. COC(=O)[C@@H]1CC[C@H](CN2CCCC[C@@H]2COc2ccc3c(c2)CN(C2CCC(=O)NC2=O)C3=O)C1 (stereo partly shown) [Compound I-50bq]
2. O=C1CCC(N2Cc3cc(OC[C@H]4CCCCN4Cc4ccc5c(c4)OC(F)(F)O5)ccc3C2=O)C(=O)N1 (stereo partly shown)
3. O=C1CCC(N2Cc3cc(OC[C@H]4CCCCN4Cc4ccc(N5CCN(Cc6ccccc6)CC5)cc4)ccc3C2=O)C(=O)N1 (stereo partly shown) [Compound I-50br]
4. O=C1CCC(N2Cc3cc(OC[C@H]4CCCCN4Cc4ccc(N5CCN(C6CCOCC6)CC5)cc4)ccc3C2=O)C(=O)N1 (stereo partly shown)

Response:
1. 72.1
2. 92.7
3. 94.1
4. 70.1

Would you be so kind as to report Dmax for each listed record?
1. Cc1onc(-c2ccccc2)c1CC(=O)N1CCCC[C@H]1COc1ccc2c(c1)CN(C1CCC(=O)NC1=O)C2=O (stereo partly shown) [Compound I-72gp]
2. O=C1CCC(N2Cc3cc(OC[C@@H]4CCCCN4Cc4cccc(N5CCCC5)c4)ccc3C2=O)C(=O)N1 (stereo partly shown) [Compound I-50aa]

Response:
1. 14.4
2. 95.1

* * *

target: HiBit-WIZ fusion protein (Homo sapiens, UniProt O95785+Q96SW2); experiment: Quantification of WIZ protein levels in HiBit tag fusion protein assay (WIZ HiBit assay in 293T cells); type: cell-based; details: HEK-293T, DMSO-normalized, curve-fitted percentage of WIZ-HiBit remaining at 25 uM; 293T cells; read-out: WIZ Amax
Measurement type: remaining activity at up to 25 µM (%)
Give bare numbers, in %.

Here's what some known entries look like.
Compound | Recorded measurement
O=C1CCC(N2Cc3cc(OC[C@@H]4CCCCN4Cc4ccc(-n5nccn5)cc4)ccc3C2=O)C(=O)N1 (some centres unmarked) [Compound I-50ai] | 22.2
O=C1CCC(N2Cc3cc(OC[C@@H]4CCCCN4Cc4cccn4S(=O)(=O)c4ccccc4)ccc3C2=O)C(=O)N1 (some centres unmarked) [Compound I-50f] | 17.4

For each of the compounds below, state remaining activity at up to 25 µM.
1. O=C1CCC(N2Cc3cc(OC[C@@H]4CCCCN4C(=O)c4ccccc4OC(F)(F)F)ccc3C2=O)C(=O)N1 (some centres unmarked) [Compound I-72dv]
2. O=C1CCC(N2Cc3cc(OC[C@@H]4CCCCN4C(=O)c4cccc(OC(F)F)c4)ccc3C2=O)C(=O)N1 (some centres unmarked) [Compound I-72hx]
3. O=C1CCC(N2Cc3cc(OC[C@H]4CCCCN4Cc4ccc5ccccc5n4)ccc3C2=O)C(=O)N1 (some centres unmarked)
4. CCC(Oc1ccc2c(c1)CN(C1CCC(=O)NC1=O)C2=O)[C@@H]1CCCN1 (single isomer, unassigned)
5. COc1cc(C#N)ccc1CN1CCCC[C@@H]1COc1ccc2c(c1)CN(C1CCC(=O)NC1=O)C2=O (some centres unmarked) [Compound I-50cm]
6. CCCCc1cnc(C(=O)N2CCCC[C@H]2COc2ccc3c(c2)CN(C2CCC(=O)NC2=O)C3=O)nc1OC (some centres unmarked) [Compound I-72aw]
7. O=C1CCC(N2Cc3cc(OC[C@@H]4CCCCN4C(=O)c4ccc5nccnc5c4)ccc3C2=O)C(=O)N1 (some centres unmarked) [Compound I-72hq]
8. O=C1CCC(N2Cc3cc(OC[C@H]4CCCCN4Cc4ccc(C(=O)N5CCCC5)cc4)ccc3C2=O)C(=O)N1 (some centres unmarked) [Compound I-50bs]

Response:
1: 86.7; 2: 94.9; 3: 2.52; 4: 89.7; 5: 32.8; 6: 39.6; 7: 86.7; 8: 5.5

Your task in this section: give remaining activity at up to 25 µM for each listed record.
1. O=C1CCC(N2Cc3cc(OC[C@@H]4CCCCN4Cc4ccc(N5CCCC5)nc4)ccc3C2=O)C(=O)N1 (some centres unmarked) [Compound I-50ak]
2. Cn1cncc1CN1CCCC[C@H]1COc1ccc2c(c1)CN(C1CCC(=O)NC1=O)C2=O (some centres unmarked) [Compound I-50ag]
3. Cc1ccnc(-c2cc(C(=O)N3CCCC[C@H]3COc3ccc4c(c3)CN(C3CCC(=O)NC3=O)C4=O)ccn2)c1 (some centres unmarked) [Compound I-72fa]
4. O=C1CCC(N2Cc3cc(OC[C@@H]4CCCCN4Cc4c[nH]cn4)ccc3C2=O)C(=O)N1 (some centres unmarked) [Compound I-50al]

Response:
1: 18.7; 2: 37.2; 3: 94.9; 4: 45.9
